Experiment: Bioavailability study, plasma concentration by HPLC-UV
Assay type: in vivo, Swiss albino mice
Conditions: Swiss albino, mouse, plasma, ip, 10 mg/kg
experimental_endpoint: Tmax (h)
Supply the numeric figure in h, leaving out any unit text.

Looking for the measured Tmax of O=C1/C(=C/c2ccccc2Cl)CN(C(=O)C(=O)N2C/C(=C\c3ccccc3Cl)C(=O)/C(=C/c3ccccc3Cl)C2)C/C1=C\c1ccccc1Cl [ST03] , can you help?
8

----------
Assay: Bioavailability study, plasma concentration by HPLC-UV
Format: in vivo, Swiss albino mice
Details: Swiss albino, mouse, plasma, ip, 20 mg/kg
experimental_endpoint: Tmax (h)
Supply the numeric figure in h, leaving out any unit text.

Looking for the measured Tmax of COc1cc(/C=C/C(=O)CC(=O)/C=C/c2ccc(O)c(OC)c2)ccc1O [curcumin, reference compound] , can you help?
3

----------
Assay: Bioavailability study, plasma concentration by HPLC-UV
Format: in vivo, Swiss albino mice
Conditions: Swiss albino, mouse, plasma, po, 20 mg/kg
experimental_endpoint: Cmax (µM)
Supply the numeric figure in µM, leaving out any unit text.

Looking for the measured Cmax of COc1cc(/C=C/C(=O)CC(=O)/C=C/c2ccc(O)c(OC)c2)ccc1O [curcumin, reference compound] , can you help?
13.7
